system: PC-3 prostate; test: NCI-60 one-dose screen, 48 h; conditions: 10 µM unless noted
The panel holds about 83,000 compounds, 20% with a hit somewhere; the sample as a whole holds those more often. Calls of active or inactive are those of the source. How the source made its calls: active means growth percent below 10; inactive means the rest.
Select the matching outcome among label 1 (active), label 0 (inactive)

Consider the following illustrative entries.
[[record]]
molecule = "CC(C)(C)c1ccc(C(=O)Nc2nc3ccc(O)cc3s2)cc1"
target_desc = "PC-3 prostate"
category_label = "label 0"

[[record]]
molecule = "COc1cccc(C(=O)Nc2cccc(C#Cc3cccc4[nH]nc(N)c34)c2)c1"
target_desc = "PC-3 prostate"
category_label = "label 0"

[[record]]
molecule = "Cc1cc(-c2ccc(Cl)cc2)n(Cc2nnc(SCC(=O)Nc3ccc(S(N)(=O)=O)cc3)n2C2CCCCC2)n1"
target_desc = "PC-3 prostate"
category_label = "label 0"


Recorded call for "Cc1ccc(CSc2nc(-c3ccc(Cl)cc3)c(C#N)c(N3CCNCC3)n2)cc1" ? label 0

For this molecule, state the assay outcome: "CN1CCN(Cc2ccc(NC(=O)c3cncc(C#Cc4cnc5ccc(OCC(C)(C)O)nn45)c3)cc2C(F)(F)F)CC1" label 1

Field: outcome | Entry: "COc1ccc(S(=O)(=O)NCCCNc2nccc(-c3[nH]c(-c4ccccc4)nc3-c3ccc(Cl)c(O)c3)n2)cc1" label 0

Name the outcome recorded for "COC(=O)C[Se]C(=O)Cc1c(C)n(C(=O)c2ccc(Cl)cc2)c2ccc(OC)cc12" in the assay. label 0

What did this assay record as the result for "CCOC(=O)c1c(NC(=O)c2ccccc2C(F)(F)F)sc2c1CCC(=O)C2" ? label 0

Write down the call the test reported for this molecule. Item: "ClC(Cl)c1nc(-c2ccco2)n2nc(-c3ccccc3)cc2n1" label 1

Per the records of this test, what outcome belongs to CCc1ccc(SC2c3ccc(N(CC)CC)cc3Oc3nc(N)c(C#N)c(N)c32)cc1 (stereo not given) ? label 1

====

test system: NCI-H460 lung; test: NCI-60 one-dose screen, 48 h (100 = growth as untreated, 0 = no growth, -100 = all killed); conditions: 10 µM unless noted
This is part of a sample that, as a whole, favours compounds with a hit. Of some 83,000 tested, about 20% had one in any assay.
ASSAY_ENDPOINT: growth (%)
A number alone suffices; assume %.

Example results:
[[record]]
compound = "CCN(CC)c1ccc2c(c1)Oc1nc(N)c(C#N)c(N)c1C2Sc1ccc(C)cc1 (configuration not stated)"
assay_endpoint = "growth"
value_units = "%"
reported = -40.4

[[record]]
compound = "Cn1ccnc1C(=O)/C=C/c1ccc(CNC(=O)c2c(F)c(F)c(F)c(F)c2F)cc1"
assay_endpoint = "growth"
value_units = "%"
reported = 7.14

[[record]]
compound = "O=C1[C@@H]2Cc3c([nH]c4ccccc34)[C@H](c3c(Cl)cccc3Cl)N2C(=O)CN1C1CCN(CC2CCCCC2)CC1"
assay_endpoint = "growth"
value_units = "%"
reported = 12.7

[[record]]
compound = "Nc1nc(Nc2ccccc2SSc2ccccc2Nc2nc(N)nc(-c3ccccc3)n2)nc(-c2ccccc2)n1"
assay_endpoint = "growth"
value_units = "%"
reported = 53.2


Fetch value of growth on NCI-H460 lung for "Fc1ccc(-c2cc3nc(C(Cl)Cl)nc(-c4ccco4)n3n2)cc1" . -17.3

Name the recorded growth of "CCOC(=O)c1c(N)c(C#N)cn1-c1cc(OC)c(OC)c(OC)c1" , assay system NCI-H460 lung. 104

Give growth only, for CC(O)c1cc2ccccc2c(=O)o1 (configuration not stated) , using NCI-H460 lung data. 104
